- method summary: qHTS assay for identifying genotoxic compounds that show differential cytotoxicity against isogenic chicken DT40 cell lines with known DNA damage response pathways - Rad54/Ku70 mutant cell line (AID 743015); note: % is set by controls: 0 for no effect and ±100 for the full control effect; nearly all actives have a fitted effect of over 60% in size
- experimental context: DT40 Rad54/Ku70 mutant viability, CellTiter-Glo, 40 h; series mostly up to 66.8 µM
Records with an inconclusive call do not appear. The source made the active and inactive calls. Calls come from the whole dose curve; as a rule, active = well fitted cell-killing curve with a large enough effect in the repeat runs; inconclusive = weak or mixed curves; inactive = no such curve, though single readings can be large or run the other way.
endpoint name: outcome

INSERT INTO measurements (compound, endpoint_name, reading) VALUES
  ('C=CC(C)(O)CC/C=C(\C)CC (stereo not drawn)', 'outcome', 'inactive'),
  ('CC1=NN(c2ccc(S(=O)(=O)O)cc2)C(=O)C1N=Nc1ccccc1 (stereo not drawn)', 'outcome', 'inactive'),
  ('O=C(COCCOCCOCC(=O)Nc1c(I)cc(I)c(C(=O)O)c1I)Nc1c(I)cc(I)c(C(=O)O)c1I', 'outcome', 'inactive'),
  ('CN(C)CCCNCCC#N', 'outcome', 'inactive');

stdin: Quick one: give measured outcome for `O=C(O)CCNC(=O)c1ccccc1`
stdout: inactive

stdin: Quick one: give measured outcome for `NCCc1ccn[nH]1`
stdout: inactive

stdin: Quick one: give measured outcome for `Cc1ccccc1C(=O)N1CC/C(=N\OS(=O)(=O)O)c2ccc(Cl)cc21`
stdout: inactive

stdin: Quick one: give measured outcome for `CCOC(=O)CCc1ccccc1`
stdout: inactive

stdin: Quick one: give measured outcome for `CN[C@@H]1[C@H](O)[C@H](NC)[C@H]2O[C@@]3(O)C(=O)C[C@@H](C)O[C@H]3O[C@@H]2[C@H]1O`
stdout: inactive

stdin: Quick one: give measured outcome for `CNCc1ccccc1`
stdout: inactive

---

- target desc: Androgen receptor (Homo sapiens) (UniProt P10275)
- Sequence (P10275 whole entry, looked up): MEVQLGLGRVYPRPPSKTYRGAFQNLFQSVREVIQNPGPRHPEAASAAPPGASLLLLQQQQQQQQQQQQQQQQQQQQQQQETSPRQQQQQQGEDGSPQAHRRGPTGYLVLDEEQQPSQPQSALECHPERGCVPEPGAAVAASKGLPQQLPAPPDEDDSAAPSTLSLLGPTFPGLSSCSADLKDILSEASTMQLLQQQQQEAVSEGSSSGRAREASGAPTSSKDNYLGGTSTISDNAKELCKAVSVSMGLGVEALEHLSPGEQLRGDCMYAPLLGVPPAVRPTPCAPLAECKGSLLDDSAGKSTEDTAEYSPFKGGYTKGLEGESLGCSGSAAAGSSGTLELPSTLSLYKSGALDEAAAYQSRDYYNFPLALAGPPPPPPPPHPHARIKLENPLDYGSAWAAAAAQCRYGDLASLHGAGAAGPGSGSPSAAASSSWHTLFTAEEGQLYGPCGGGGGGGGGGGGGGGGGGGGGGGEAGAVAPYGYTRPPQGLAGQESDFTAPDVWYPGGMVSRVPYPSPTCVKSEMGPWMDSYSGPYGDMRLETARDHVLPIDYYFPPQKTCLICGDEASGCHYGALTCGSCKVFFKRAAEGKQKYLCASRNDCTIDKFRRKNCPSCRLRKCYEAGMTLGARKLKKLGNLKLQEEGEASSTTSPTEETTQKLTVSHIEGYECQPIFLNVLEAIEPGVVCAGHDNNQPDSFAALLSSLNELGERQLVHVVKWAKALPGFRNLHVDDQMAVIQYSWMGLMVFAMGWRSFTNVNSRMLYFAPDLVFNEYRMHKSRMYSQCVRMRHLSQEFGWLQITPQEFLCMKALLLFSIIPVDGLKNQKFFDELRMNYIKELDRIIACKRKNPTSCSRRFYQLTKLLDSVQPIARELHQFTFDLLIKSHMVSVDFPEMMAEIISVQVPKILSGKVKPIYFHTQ
- method summary: qHTS assay to identify small molecule agonists of the androgen receptor (AR) signaling pathway (AID 743036); note: % is set by controls: 0 for no effect and ±100 for the full control effect
- experimental context: HEK293 AR-UAS-bla GripTite, beta-lactamase FRET ratio, 16 h; series mostly up to 62.4 µM
Records with an inconclusive call do not appear. Calls of active or inactive are those of the source. The call rests on the fitted dose curve; in most records, active means well fitted activation curve with a large enough effect in the signal ratio in the repeat runs, with a control signal flat (not every such curve was filed as active); inconclusive means weak or mixed curves, or effect the other way; inactive means no such curve, though single readings can be large or run the other way; the % refers to the signal ratio.
endpoint name: outcome

INSERT INTO results (compound, target_desc, endpoint_name, reading) VALUES
  ('CC(=O)OC(C(=O)c1ccccc1)c1ccccc1 (stereo not drawn)', 'Androgen receptor (Homo sapiens) (UniProt P10275)', 'outcome', 'inactive'),
  ('CCC(C)(C)C1CCC(=O)CC1', 'Androgen receptor (Homo sapiens) (UniProt P10275)', 'outcome', 'inactive'),
  ('CNC(=O)NC', 'Androgen receptor (Homo sapiens) (UniProt P10275)', 'outcome', 'inactive');

---

- method summary: qHTS assay to identify small molecule HDAC inhibitors - cell viability counter screen (AID 1259365); note: % is set by controls: 0 for no effect and ±100 for the full control effect; nearly all actives have a fitted effect of over 50% in size
- experimental context: HCT-116 viability, CellTiter-Glo ATP luminescence, 2 h; series mostly up to 92.4 µM
Calls of active or inactive are those of the source. The call rests on the fitted dose curve; in most records, active means well fitted cell-killing curve with a large enough effect in the repeat runs; inconclusive means weak or mixed curves, or effect the other way; inactive means flat fitted curve, though single readings scatter.
endpoint name: activity change, negative = cytotoxicity

INSERT INTO measurements (molecule, reading) VALUES
  ('O=C(/C=C/c1ccccc1)NCCO', 'inactive'),
  ('NS(=O)(=O)c1ccccc1OC(F)(F)F', 'inactive'),
  ('CCOC(=O)CC#N', 'inactive'),
  ('CC(=O)OC(C(=O)c1ccccc1)c1ccccc1 (stereo not drawn)', 'inactive'),
  ('O=C1NC2NC(=O)NC2N1 (stereo not drawn)', 'inactive'),
  ('CC(Cl)COP(=O)(OCC(C)Cl)OCC(C)Cl (stereo not drawn)', 'inactive');

stdin: Quick one: give measured activity change, negative = cytotoxicity for `O=CO`
stdout: -1.28% [at 8.39 µM] (inactive)

stdin: Quick one: give measured activity change, negative = cytotoxicity for `O=[Si]=O`
stdout: inactive

---

- method summary: qHTS assay to identify small molecule antagonists of the thyroid receptor (TR) signaling pathway - cell viability counter screen (AID 743064); note: % is set by controls: 0 for no effect and ±100 for the full control effect; nearly all actives have a fitted effect of over 50% in size
- experimental context: GH3.TRE-Luc viability, CellTiter-Fluor, 24 h; series mostly up to 70.3 µM
Records with an inconclusive call do not appear. Active and inactive are the calls of the source. Calls come from the whole dose curve; as a rule, active = well fitted cell-killing curve with a large enough effect in the repeat runs; inconclusive = weak or mixed curves, or effect the other way; inactive = no such curve, though single readings can be large or run the other way.
endpoint name: outcome

INSERT INTO assay_data (cpd_smiles, endpoint_name, reading) VALUES
  ('O=C(O)C(=O)Nc1cccc(-c2nn[nH]n2)c1', 'outcome', 'inactive'),
  ('CCOC(=O)CC(CC(=O)OCC)(OC(C)=O)C(=O)OCC', 'outcome', 'inactive'),
  ('CCOC(=O)CCc1ccccc1', 'outcome', 'inactive');

---

- method summary: qHTS assay to identify small molecule antagonists of the androgen receptor (AR) signaling pathway using the MDA cell line in the presence of 0.5 nM R1881 - cell viability counter screen (AID 1259242); note: % is set by controls: 0 for no effect and ±100 for the full control effect; nearly all actives have a fitted effect of over 45% in size
- experimental context: MDA-kb2 viability, CellTiter-Fluor protease fluorescence, 16 h; series mostly up to 92.4 µM
Results filed as inconclusive are left out. Calls of active or inactive are those of the source. Calls come from the whole dose curve; as a rule, active = well fitted cell-killing curve with a large enough effect in the repeat runs; inconclusive = weak or mixed curves, or effect the other way; inactive = flat fitted curve, though single readings scatter.
endpoint name: viability change, negative = cytotoxic

INSERT INTO assay_data (molecule, endpoint_name, reading) VALUES
  ('Cc1ccccc1OCC1CO1 (centres undefined)', 'viability change, negative = cytotoxic', 'inactive'),
  ('CC(C)CCO', 'viability change, negative = cytotoxic', 'inactive'),
  ('OC[C@@H](O)[C@H](O)[C@@H](O)[C@@H](O)CO', 'viability change, negative = cytotoxic', 'inactive'),
  ('Cc1cc(C)cc([N+](=O)[O-])c1', 'viability change, negative = cytotoxic', 'inactive'),
  ('C=CC(C)(O)CC/C=C(\C)CC (centres undefined)', 'viability change, negative = cytotoxic', 'inactive'),
  ('CNC(=O)NC', 'viability change, negative = cytotoxic', 'inactive'),
  ('CC(=O)OC(C(=O)c1ccccc1)c1ccccc1 (centres undefined)', 'viability change, negative = cytotoxic', 'inactive'),
  ('CCCCC(C)C(=O)O (centres undefined)', 'viability change, negative = cytotoxic', 'inactive');

stdin: Quick one: give measured viability change, negative = cytotoxic for CC(=O)N(CC(O)CO)c1c(I)c(C(=O)NCC(O)CO)c(I)c(C(=O)NCC(O)CO)c1I (centres undefined)
stdout: inactive

---

- target desc: Nuclear receptor subfamily 1 group I member 2 (Homo sapiens) (UniProt O75469)
- Sequence (O75469 whole entry, looked up): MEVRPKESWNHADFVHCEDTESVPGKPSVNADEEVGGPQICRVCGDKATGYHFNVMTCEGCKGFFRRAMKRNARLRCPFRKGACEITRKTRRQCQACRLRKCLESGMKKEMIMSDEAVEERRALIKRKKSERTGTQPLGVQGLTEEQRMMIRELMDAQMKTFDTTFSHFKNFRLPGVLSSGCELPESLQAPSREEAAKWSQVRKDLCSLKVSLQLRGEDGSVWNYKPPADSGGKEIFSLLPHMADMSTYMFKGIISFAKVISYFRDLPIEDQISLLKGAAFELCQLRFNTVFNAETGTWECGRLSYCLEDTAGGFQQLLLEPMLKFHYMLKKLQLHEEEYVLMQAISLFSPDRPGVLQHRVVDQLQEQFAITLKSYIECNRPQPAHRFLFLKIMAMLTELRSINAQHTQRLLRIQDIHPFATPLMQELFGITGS
- method summary: Human pregnane X receptor (PXR) small molecule agonists, qHTS assay (AID 1346982); note: % is set by controls: 0 for no effect and ±100 for the full control effect; nearly all actives have a fitted effect of over 35% in size
- experimental context: PXR-Luc HepG2, CYP3A4 luciferase reporter, 24 h; series mostly up to 92.4 µM
- Source text: National Center for Advancing Translational Sciences [NCATS] NIH Chemical Genomics Center [NCGC] U.S. Environmental Protection Agency [EPA] National Institutes of Environmental Health Sciences [NIEHS] National Toxicology Program [NTP] The human pregnane X receptor (hPXR) regulates the expression of several drug metabolizing enzymes and induction of these proteins is a major mechanism for developing drug resistance in cancer. […]
Results filed as inconclusive are left out. Calls of active or inactive are those of the source. Calls come from the whole dose curve; as a rule, active = well fitted activation curve with a large enough effect in the repeat runs; inconclusive = weak or mixed curves; inactive = no such curve, though single readings can be large or run the other way.
Answer with one of the outcomes given here: active, inactive

// known answers, use as guide
INSERT INTO assay_data (compound, target_desc, assigned_class) VALUES
  ('CCOC(=O)C(C)(C)C', 'Nuclear receptor subfamily 1 group I member 2 (Homo sapiens) (UniProt O75469)', 'inactive'),
  ('C1=C\CC/C=C\CC/1', 'Nuclear receptor subfamily 1 group I member 2 (Homo sapiens) (UniProt O75469)', 'inactive'),
  ('O=C1OC(=O)c2cc(Oc3ccc4c(c3)C(=O)OC4=O)ccc21', 'Nuclear receptor subfamily 1 group I member 2 (Homo sapiens) (UniProt O75469)', 'inactive'),
  ('CC(C)(C)c1ccc(C=O)cc1', 'Nuclear receptor subfamily 1 group I member 2 (Homo sapiens) (UniProt O75469)', 'inactive'),
  ('C=COCCOCCOC=C', 'Nuclear receptor subfamily 1 group I member 2 (Homo sapiens) (UniProt O75469)', 'inactive');

stdin: How did this test come out for `CCN(CCO)c1cccc(C)c1` ?
stdout: inactive

stdin: How did this test come out for `CC(=O)c1ccc2c(c1)CCCC2` ?
stdout: inactive

stdin: How did this test come out for CC(C)COC(=O)CC(C(=O)OCC(C)C)S(=O)(=O)O (centres undefined) ?
stdout: inactive

stdin: How did this test come out for `O=C(O)C(=O)Nc1cccc(-c2nn[nH]n2)c1` ?
stdout: inactive

stdin: How did this test come out for `Cc1nc([N+](=O)[O-])cn1-c1ccc([N+](=O)[O-])cc1` ?
stdout: inactive

stdin: How did this test come out for `Cc1ccc(C(=O)C(=O)O)cc1C` ?
stdout: inactive

---

- method summary: qHTS assay to identify small molecule antagonists of the retinoid-related orphan receptor gamma (ROR-gamma) signaling pathway - cell viability counter screen (AID 1159520); note: % is set by controls: 0 for no effect and ±100 for the full control effect; nearly all actives have a fitted effect of over 50% in size
- experimental context: Tet-on RORgamma CHO cells viability, ATP luminescence, 16 h; series mostly up to 92.4 µM
Inconclusive results are not listed. Active and inactive are the calls of the source. Calls follow the shape of the dose curve; as a rule, active = well fitted cell-killing curve with a large enough effect in the repeat runs; inconclusive = weak or mixed curves, or effect the other way; inactive = no such curve, though single readings can be large or run the other way.
endpoint name: activity, negative = cytotoxicity

Examples from the recorded data:
INSERT INTO results (compound, reading) VALUES
  ('CC(C)CCC(=O)CCC(C)C', 'inactive'),
  ('O=C1CC[C@H](C(=O)N2CCCCC2)N1', 'inactive'),
  ('C=CCOCC(O)CCl (centres undefined)', 'inactive'),
  ('CCN1CN(CC)CN(CC)C1', 'inactive'),
  ('O=C(O)c1ccc(OCCN2CCCCC2)cc1', 'inactive');

stdin: Quick one: give measured activity, negative = cytotoxicity for CCCCCC1CCCC(=O)O1 (centres undefined)
stdout: inactive

stdin: Quick one: give measured activity, negative = cytotoxicity for `Nc1c(NC/C=C\COc2cc(CN3CCCCC3)ccn2)c(=O)c1=O`
stdout: 0% [at 19 µM] (inactive)

stdin: Quick one: give measured activity, negative = cytotoxicity for `C[C@H](CCC(=O)O)[C@H]1CC[C@H]2[C@@H]3[C@H](O)C[C@@H]4C[C@H](O)CC[C@]4(C)[C@H]3C[C@H](O)[C@]12C`
stdout: inactive

stdin: Quick one: give measured activity, negative = cytotoxicity for `CC(C)(C)NCCO`
stdout: inactive

stdin: Quick one: give measured activity, negative = cytotoxicity for `CCOC(=O)C(C)(C)C`
stdout: inactive

stdin: Quick one: give measured activity, negative = cytotoxicity for `CC(C)COC(=O)/C=C/c1ccccc1`
stdout: inactive

stdin: Quick one: give measured activity, negative = cytotoxicity for `CC(C)(C)c1ccc(C=O)cc1`
stdout: inactive

stdin: Quick one: give measured activity, negative = cytotoxicity for `C=C[Si](C)(C)O[Si](C)(C)C=C`
stdout: inactive

stdin: Quick one: give measured activity, negative = cytotoxicity for `NS(=O)(=O)c1ccc(Cl)c(S(N)(=O)=O)c1`
stdout: inactive
